tested on: OVCAR-8 ovarian; assay: NCI-60 one-dose screen, 48 h (100 = growth as untreated, 0 = no growth, -100 = all killed); settings: 10 µM unless noted
Compounds without any hit were thinned out: in the full panel of roughly 83,000, 20% have a hit. Active and inactive are the calls of the source. Rule for the calls: active = growth percent below 10; inactive = the rest.
endpoint name: growth

- smiles string: "C/C(Cc1ccc(Cl)cc1)=C(\\c1ccc(O)cc1)c1ccc(Cl)cc1"
  recorded value: "104% (inactive)"
- smiles string: "CNC(=O)c1ccccc1Oc1nc(Nc2cc(OC)c(OC)c(OC)c2)ncc1Br"
  recorded value: "72.2% (inactive)"
- smiles string: "COc1ccc(Nc2nc(-c3cc(O)c(C)c(C)c3O)cs2)cc1"
  recorded value: "70.7% (inactive)"
- smiles string: "Cc1c(-c2ccc(O)cc2)n(Cc2ccc(OCCN3CCCCCC3)cc2)c2ccc(O)cc12"
  recorded value: "84.7% (inactive)"
- smiles string: "O=C1C(=O)N(Cc2ccc(-c3ccccc3)cc2)c2ccc(OC(F)(F)F)cc21"
  recorded value: "23.6% (inactive)"
- smiles string: "Nc1[nH]n2cc(-c3ccccc3)nc2c1N=Nc1ccc(S(N)(=O)=O)cc1"
  recorded value: "36.6% (inactive)"
- smiles string: "O=C(CSc1nc2sc3c(c2c(=O)n1-c1ccccc1)CCCCC3)N/N=C/c1cccc([N+](=O)[O-])c1"
  recorded value: "16.3% (inactive)"

----------
system: SK-MEL-28 melanoma; experiment: NCI-60 one-dose screen, 48 h (100 = growth as untreated, 0 = no growth, -100 = all killed); conditions: 10 µM unless noted
The panel holds about 83,000 compounds, 20% with a hit somewhere; the sample as a whole holds those more often.
Assign Y whenever growth does not fall below 90%; assign N whenever it does.

- molecule: "CN(C)CCNC(=O)c1ccc(-c2nc3ccc4[nH]ncc4c3c3c2C2CCC3C2)cc1 (centres undefined)"
  measured on: "SK-MEL-28 melanoma"
  label value: "N"
- molecule: "N#Cc1ccc(O)c(C2=NCC(c3ccccc3)O2)c1 (centres undefined)"
  measured on: "SK-MEL-28 melanoma"
  label value: "N"
- molecule: "CC(C)c1ccc(C(=O)Nc2sc3c(c2C(N)=O)CCC(=O)C3)cc1"
  measured on: "SK-MEL-28 melanoma"
  label value: "N"
- molecule: "COc1cc2c(cc1OCCCN1CCN(CCCOc3cc4c(cc3OC)C(=O)N3CC(F)(F)C[C@H]3C=N4)CC1)N=C[C@@H]1CC(F)(F)CN1C2=O"
  measured on: "SK-MEL-28 melanoma"
  label value: "Y"
- molecule: "C[PH+](c1nc2ccccc2nc1[PH+](C)C(C)(C)C)C(C)(C)C.C[PH+](c1nc2ccccc2nc1[PH+](C)C(C)(C)C)C(C)(C)C.[Au+].[Cl-] (centres undefined)"
  measured on: "SK-MEL-28 melanoma"
  label value: "N"
- molecule: "Cc1cn(-c2cc(NC(=O)c3cncc(C#Cc4cnc(N)c5ncccc45)c3)cc(C(F)(F)F)c2)cn1"
  measured on: "SK-MEL-28 melanoma"
  label value: "N"
- molecule: "CC(=O)O[C@@H]1C[C@]2(C(C)C)O[C@@]1(C)[C@@H]1CCC(C)=C1[C@@H]2OC(=O)/C=C/c1ccccc1"
  measured on: "SK-MEL-28 melanoma"
  label value: "Y"
- molecule: "Oc1ccc(Cl)cc1/C=N\\NC(=S)N/N=C/c1cc(Cl)ccc1O"
  measured on: "SK-MEL-28 melanoma"
  label value: "N"
- molecule: "Cc1cc(C(=O)Nc2ncc(Cc3cccc(C(F)(F)F)c3)s2)c2ccccc2n1"
  measured on: "SK-MEL-28 melanoma"
  label value: "N"
- molecule: "CC(=O)Oc1ccc(N2C(=O)C(Cl)=C(Nc3cccc(C(F)(F)F)c3)C2=O)cc1"
  measured on: "SK-MEL-28 melanoma"
  label value: "Y"
- molecule: "COc1cc2c(cc1OC)C(C)N(S(N)(=O)=O)CC2 (centres undefined)"
  measured on: "SK-MEL-28 melanoma"
  label value: "Y"
- molecule: "O=C(Nc1cccc(Cl)c1)Nc1cccc(Cn2c(=O)[nH]c3ccc(Oc4ncccn4)cc3c2=O)c1"
  measured on: "SK-MEL-28 melanoma"
  label value: "N"
- molecule: "O=C1Nc2ccccc2/C1=C/c1nc2ccccc2c(=O)[nH]1"
  measured on: "SK-MEL-28 melanoma"
  label value: "Y"
- molecule: "COc1ccc(NC(=O)c2sc3nc(C)c(C(=O)/C=C/c4ccccc4)cc3c2N)cc1"
  measured on: "SK-MEL-28 melanoma"
  label value: "N"
- molecule: "CCOC(=O)c1cc2c(n1Cc1cc(OC)c(OC)c(OC)c1)-c1nc(N)sc1CCC2"
  measured on: "SK-MEL-28 melanoma"
  label value: "N"
- molecule: "Fc1cc2c(cc1Cl)N(c1ncnc3ccc(-c4ccc5n[nH]nc5c4)cc13)CC2"
  measured on: "SK-MEL-28 melanoma"
  label value: "N"
- molecule: "COc1ccc(F)cc1/C=C/C(=O)/C=C(/C=C/c1cc(F)ccc1OC)OB(F)F"
  measured on: "SK-MEL-28 melanoma"
  label value: "N"

----------
test system: IGROV1 ovarian; experiment: NCI-60 one-dose screen, 48 h (100 = growth as untreated, 0 = no growth, -100 = all killed); settings: 10 µM unless noted
Compounds without any hit were thinned out: in the full panel of roughly 83,000, 20% have a hit. Calls of active or inactive are those of the source. Rule for the calls: active = growth percent below 10; inactive = the rest.
endpoint name: growth

- molecule: "CN(C)CC1CCC(CN(C)C)C1=O (stereo unspecified)"
  recorded value: "115% (inactive)"
- molecule: "COC(=O)c1c(C)nc(C)c2c1C(=O)C(Br)=C(NCc1ccccc1)C2=O"
  recorded value: "18% (inactive)"
- molecule: "COc1cc(-c2nccc3[nH]c(-c4ccc5cc[nH]c5c4)nc23)cc(OC)c1OC"
  recorded value: "29.5% (inactive)"
- molecule: "C#COc1cccc(Nc2c(C#N)cnc3ncc(NC(=O)CCl)cc23)c1"
  recorded value: "14.1% [6.25 µM] (inactive)"
- molecule: "Nc1nc(N)c(-c2ccc(Cl)c(Cl)c2)c(CBr)n1"
  recorded value: "47.5% (inactive)"
- molecule: "c1csc(-c2ccc(CNc3c4ccccc4nc4ccccc34)cc2)c1"
  recorded value: "10% (inactive)"

----------
growth values, listed per item
tested on: MCF7 breast; assay: NCI-60 one-dose screen, 48 h (100 = growth as untreated, 0 = no growth, -100 = all killed); conditions: 10 µM unless noted
Compounds without any hit were thinned out: in the full panel of roughly 83,000, 20% have a hit.

- compound: "O=C(CSc1oc(-c2ccccc2)nc1S(=O)(=O)c1ccccc1)Nc1ccc(F)cc1"
  measured on: "MCF7 breast"
  growth [%]: 92.6
- compound: "COc1ccc(OC)c(/C=N/Nc2ncnc3c2c(C)nn3C)c1"
  measured on: "MCF7 breast"
  growth [%]: 85.2
- compound: "COc1cc(-c2nc3sccn3c2-c2ccnc(NCCNS(=O)(=O)c3ccccc3)n2)ccc1F"
  measured on: "MCF7 breast"
  growth [%]: 37.9
- compound: "COc1ccc(C2=C(Nc3ccc(C(=O)Nc4ccccc4)cc3)C(=O)N(C)C2=O)cc1"
  measured on: "MCF7 breast"
  growth [%]: 102
- compound: "COc1cc2nc3cc([N+](=O)[O-])ccc3c(NCCNCC(C)O)c2cc1OC (centres undefined)"
  measured on: "MCF7 breast"
  growth [%]: -13.3
- compound: "Cc1c(O)cc(-c2cnc(Nc3ccccc3)s2)c(O)c1C"
  measured on: "MCF7 breast"
  growth [%]: 82.2
- compound: "O=C1C(Cl)=C(NCCCCCCNC2=C(Cl)C(=O)c3ccccc3C2=O)C(=O)c2ccccc21"
  measured on: "MCF7 breast"
  growth [%]: 81.6
- compound: "COc1ccc(-c2cc(-c3cccnc3)nc3sc4c(=O)[nH]c(-c5ccc(Cl)cc5)nc4c23)cc1OC"
  measured on: "MCF7 breast"
  growth [%]: 73.5
- compound: "C=C1C(=O)O[C@H]2[C@H]1CC/C(COC(=O)/C=C\\C(=O)NCc1ccc(Cn3c(=O)sn(CCI)c3=O)cc1)=C\\CC[C@@]1(C)O[C@@H]21"
  measured on: "MCF7 breast"
  growth [%]: 24.8

----------
test system: K-562 leukemia; experiment: NCI-60 one-dose screen, 48 h (100 = growth as untreated, 0 = no growth, -100 = all killed); details: 10 µM unless noted
About 83,000 compounds went through this panel and 20% of them were active in at least one assay; those are over-represented in the sample as a whole.
Label rule, in plain words: growth of 60% and up is met, under 60% is not met.

- molecule: "C=C1C(=O)O[C@H]2[C@H]1CC/C(Cn1cc(-c3ccccc3)nn1)=C\\CC[C@@]1(C)O[C@@H]21"
  label value: "not met"
- molecule: "C[C@@H](CO)[C@@H]1CCC=C2CC[C@]3(C)[C@H](CC[C@@H]4[C@@]5(C)CCCNC(C)(C)[C@@H]5CC[C@]43C)[C@H]21"
  label value: "not met"
- molecule: "NC(=O)c1cc(I)ccc1NC(=O)/C=C/c1ccccc1"
  label value: "not met"
- molecule: "N#CC1=C(c2ccccc2)Nc2c(c(-c3ccc(Cl)cc3)nn2-c2ccccc2)C12C(=O)Nc1ccc(Cl)cc12 (centres undefined)"
  label value: "met"
- molecule: "NC(=O)C(=O)c1ccccc1NC=O"
  label value: "met"
- molecule: "Cc1cc(N2CCCCC2)cc(C)c1-c1csc(NC(=O)c2ccncc2)n1"
  label value: "not met"
- molecule: "Cc1ccc(NC(=O)Cn2cc(CN3CCN(c4ccnc5cc(Cl)ccc45)CC3)nn2)cc1"
  label value: "met"
- molecule: "CS(=O)(=O)c1ccc(-c2cnn3ccc(-c4cccc(S(=O)(=O)C5CC5)c4)nc23)cc1"
  label value: "met"
- molecule: "O=S(=O)(Nc1cc(F)cc(Cl)c1)c1ccc(-c2cnc(C3CC3)o2)cc1"
  label value: "not met"

// provenance: PubChem BioAssay (NCI)
